Reference for the values: paper PMC5540273

- Tested on: ULK3
- settings: concentration: 1 μM, replicates: in singlicate; n = 1
measurement name: %Inh (%)
I only need the number, in %, no unit after it.

Examples with their reported %Inh follow.
COC(=O)c1c(-c2ccccc2)c2cc(OC)ccc2c(=O)n1Cc1ccccc1
0
O=C(Nc1ccc2c(c1)OCO2)NC1CCN(c2ccnc(Nc3ccc(F)cc3)n2)C1 (stereo not drawn)
16
COc1ccccc1-c1ccc2c(NC(=O)C3CC3)n[nH]c2n1
100
Cn1ccc2ncnc(Oc3ccc(NC(=O)Nc4ccccc4)cc3)c21
3
Cn1ccc2ncnc(Oc3ccc(Nc4nc5ccccc5[nH]4)cc3)c21
0

Entry COc1ccc(CNC(=O)NC2CCN(c3ccnc(Nc4cc(OC)c(OC)c(OC)c4)n3)C2)cc1 (stereo not drawn) has what %Inh?
86

Same lookup for Cc1cccc(-c2nc(-c3ccc(S(C)(=O)=O)cc3)sc2-c2ccnc(NCCc3ccccc3)c2)c1 , please.
0

Same lookup for CC1=C(C(=O)Nc2cc3cn[nH]c3cc2F)C(c2ccc(C(F)(F)F)cc2)CC(=O)N1 (stereo not drawn) , please.
34

Same lookup for Cc1ccc(-c2cc(-c3c[nH]nc3-c3ccccn3)ccn2)cc1 , please.
3

====

- Test system: MEK2
- Construct: gene MAP2K2
pKd: −log10 of the molar value.
measurement name: pKd

Entry Fc1cc(Cl)ccc1Nc1ccnc2cc(-c3ccc(CN4CCCCC4)o3)ccc12 has what pKd?
< 5.00

====

This listing pairs molecules with measured %Inh.
- Tested on: PRP4
- settings: concentration: 1 μM, replicates: in singlicate; n = 1
I only need the number, in %, no unit after it.

Entry CC(=O)Nc1nc2cnc(Nc3cc(NC(=O)c4cccc(CCC#N)c4)ccc3C)nc2s1 has what %Inh?
1

====

- Test system: ROS1
- settings: concentration: 1 μM, replicates: in singlicate; n = 1
This listing pairs compounds with measured %Inh.
I only need the number, in %, no unit after it.

Examples with their reported %Inh follow.
Cc1cccc(-c2nc(Nc3ccncc3)c3ccccc3n2)n1 [GW855857]
0
Clc1cc(Cl)cc(Nc2ccnc(Nc3cc(Cl)cc(Cl)c3)n2)c1 [GSK175726]
37
COc1cc2ncn(-c3cc(OCC4CCCO4)c(C(N)=O)s3)c2cc1OC (centres unmarked) [GSK204607]
8
Cl.NC(=O)c1cccc(Nc2nccc(Nc3ccc(Oc4cccc(Cl)c4)c(Cl)c3)n2)c1 [GW659008]
0
Cc1cccc(-c2nc(Nc3ccc4[nH]ncc4c3)c3ccccc3n2)n1 [GW857175]
17

Entry COc1ccc(C2=C(Nc3cccc(C(=O)O)c3)C(=O)NC2=O)cc1 [SB-390765] has what %Inh?
14

Same lookup for O=C(Nc1ccccc1)Nc1cccc(Oc2ccc3nccn3n2)c1 , please.
0

Same lookup for O=S(=O)(c1ccc(-c2ccnc3[nH]ccc23)cc1)N1CCCC1 [GSK846226] , please.
12

Same lookup for Fc1cccc(COc2nnc(-c3ccc4c(c3)CCO4)o2)c1 , please.
0

====

- Test system: TGFBR2
- settings: concentration: 1 μM, replicates: in singlicate; n = 1
measurement name: %Inh

Cn1ccc2ncnc(Oc3ccc(NC(=O)Nc4ccccc4)cc3)c21
0%
COc1cccc(NC(=O)NC2CCN(c3ccnc(Nc4ccc(F)cc4)n3)C2)c1 (stereo not drawn)
0%
COc1ccc(Nc2nccc(-c3cccc(NC(=O)c4cc5cc(F)ccc5[nH]4)c3)n2)cc1
10%

Entry O=C(O)COc1ncnc2cc(-c3ccc4[nH]ncc4c3)sc12 has what %Inh?
18%

====

- System: FLT3
- settings: concentration: 1 μM, replicates: in singlicate; n = 1
measurement name: %Inh (%)
I only need the number, in %, no unit after it.

Clc1cc(Cl)cc(Nc2ccnc(Nc3cc(Cl)cc(Cl)c3)n2)c1
0
COc1ccc(Nc2nccc(-c3cccc(NC(=O)c4cc5cc(F)ccc5[nH]4)c3)n2)cc1
39
Cc1cc(N2Cc3ccccc3C2)nc(Nc2ccc(S(=O)(=O)N3CCOCC3)cc2)n1.Cl
0

Entry Cc1cc(-c2ccc3c(c2)CC[C@@H](N[C@@H](C)c2ccccc2)C3)cnc1N.Cl has what %Inh?
27

Same lookup for O=C(Nc1n[nH]c2nc(-c3nccs3)c(Br)cc12)C1CC1 , please.
88

Same lookup for Cc1cccc(-c2nc(C)cc(Nc3ccncc3)n2)n1 , please.
5

Same lookup for CN1C(=O)C(Nc2ccc(Cl)c(C(=O)O)c2)=C(c2ccc(Cl)cc2)C1=O , please.
0

Same lookup for Cc1ccc(C(=O)Nc2ccc(Nc3ccnc4cc(-c5ccccn5)ccc34)cc2O)cc1.Cl , please.
0

====

- Tested on: MINK
- Construct: gene MINK1
measurement name: Kd
# answer = value followed by unit

Entry Cc1ccc(-c2cc(-c3c[nH]nc3-c3ccccn3)ccn2)cc1 [GW684088] has what Kd?
61 nM

====

This listing pairs compounds with measured %Inh.
- System: FGFR1
- settings: concentration: 1 μM, replicates: in singlicate; n = 1
I only need the number, in %, no unit after it.

Examples with their reported %Inh follow.
CS(=O)(=O)c1ccc(-c2c(-c3ncn[nH]3)sc(N3CCOCC3)c2C#N)cc1
32
COc1ccc(CNC(=O)NC2CCN(c3ccnc(Nc4cc(OC)c(OC)c(OC)c4)n3)C2)cc1 (stereo not shown) [GSK1379748]
0
Cc1c(O)cccc1Nc1ccnc2ccc(C(F)(F)F)cc12.Cl [GW466413]
0
O=C(Nc1ccc2c(c1)OCO2)NC1CCN(c2ccnc(Nc3ccc(F)cc3)n2)C1 (stereo not shown) [GSK1379724]
0

Entry C[C@@H]1CCCCN1c1cc(-c2ccc3c(N)n[nH]c3c2)nc(N)n1 [GSK2258759] has what %Inh?
0

Same lookup for Cl.Oc1ccc(-c2nc(-c3ccccc3)[nH]c2-c2ccncc2)cc1 [SB-428218] , please.
0

Same lookup for CSc1nn2c(=O)cc(N3CCOCC3)nc2n1Cc1cccc(C(F)(F)F)c1C [GSK2363608] , please.
0

Same lookup for CCn1c(-c2ccccn2)nc2cnccc21 [SB-736398] , please.
1

Same lookup for Cc1ccccc1-n1cnc2c(N)ncnc21 [SKF-97510] , please.
0

Same lookup for CS(=O)(=O)c1ccc(-c2nc3n(c2-c2ccncc2)CCC3)cc1 [SKF-105942] , please.
0

Same lookup for Cc1cccc(-c2nc(Nc3ccc4[nH]ncc4c3)c3ccccc3n2)n1 [GW857175] , please.
5

Same lookup for CN1C(=O)C(Nc2ccc(Cl)c(C(=O)O)c2)=C(c2ccc(Cl)cc2)C1=O [SB-404290] , please.
0

Same lookup for O=C(Nc1n[nH]c2nc(-c3nccs3)c(Br)cc12)C1CCCC1 [SB-742609] , please.
0

====

- Tested on: NEK1
- settings: concentration: 1 μM, replicates: in singlicate; n = 1
measurement name: %Inh (%)
I only need the number, in %, no unit after it.

CSc1nn2c(=O)cc(N3CCOCC3)nc2n1Cc1cccc(C(F)(F)F)c1C
0
COc1cc2ncn(-c3cc(OCC4CCCO4)c(C(N)=O)s3)c2cc1OC (stereo not drawn)
11
COc1cc2nccc(Nc3ccc(NC(=O)c4ccc(C)cc4)c(O)c3)c2cc1OC.Cl
2
COc1ccc(Nc2nccc(NCCNC(=O)Nc3ccccc3F)n2)cc1
0
Clc1cc(Cl)cc(Nc2ccnc(Nc3cc(Cl)cc(Cl)c3)n2)c1
1

Record lookup: for NEK1, what %Inh belongs to Cc1cccc(-c2nc(Nc3ccc4[nH]ncc4c3)c3ccccc3n2)n1 ?
0

Same lookup for O=C(Nc1ccccc1)Nc1cccc(Oc2ccc3nccn3n2)c1 , please.
0

Same lookup for Cl.O=C(Nc1cccc(-c2nn3ncccc3c2-c2ccnc(Nc3cccnc3)n2)c1)c1c(F)cccc1F , please.
0

Same lookup for Cc1ccc(NC(=O)Nc2cc(C(C)(C)C)nn2-c2ccccc2)cc1 , please.
0

====

This listing pairs compounds with measured %Inh.
- Test system: CDK8
- settings: concentration: 1 μM, replicates: in singlicate; n = 1
I only need the number, in %, no unit after it.

Examples with their reported %Inh follow.
O=C(Nc1n[nH]c2nc(-c3nccs3)c(Br)cc12)C1CC1
25
O=S(=O)(c1ccc(-c2ccnc3[nH]ccc23)cc1)N1CCCC1
0
COc1cc(Nc2nccc(N3CCC(NC(=O)Nc4cc(C)ccc4C)C3)n2)cc(OC)c1OC (stereo not drawn)
20

Entry O=C(Nc1n[nH]c2nc(-c3nccs3)c(Br)cc12)C1CCCC1 has what %Inh?
0

Same lookup for Cc1cccc(-c2nc(-c3ccc(S(C)(=O)=O)cc3)sc2-c2ccnc(NCCc3ccccc3)c2)c1 , please.
15

Same lookup for COC(=O)c1c(-c2ccccc2)c2cc(OC)ccc2c(=O)n1Cc1ccccc1 , please.
7

Same lookup for CN1C(=O)C(Nc2ccc(Cl)c(C(=O)O)c2)=C(c2ccc(Cl)cc2)C1=O , please.
0

Same lookup for Cc1c(Cn2ccn3c(=O)cc(N4CCOCC4)nc23)cccc1C(F)(F)F , please.
0

Same lookup for Cc1csc(-c2nc(Nc3ccncc3)c3ccccc3n2)n1 , please.
0
